B1: SPATS1 (parent)
chain: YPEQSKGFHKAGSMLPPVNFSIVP

- Variants of: B1
- ASSAY_COMMENT: protein stability index of a GFP-peptide fusion (GPS, HEK-293T) (PSI 1-6); higher = more stable;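 note: lentivirally expressed fusions sorted by FACS into six bins by GFP to DsRed ratio, PSI derived from sequencing read proportions per bin multiplied by bin number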
- CONDITION_SUMMARY: c terminus: a fixed tail appended
Criterion: protein stability index meeting or surpassing 2. Met: True. Not met: False.

Solved entries (count: 5):
# MUTATION_NOTATION, CLASS_LABEL
data = [
    ("V23Y", "False"),
    ("P17M", "False"),
    ("S21W", "True"),
    ("F8R", "True"),
    ("K6A", "False"),
]

query: Could you verify whether the entry `E3M` shows protein stability index of no less than 2?
result: True

query: Then `P24G` ?
result: True

query: Then `S5F` ?
result: True
